Reference for the values: PubChem BioAssay (Tox21)

Target: Thyrotropin receptor (Homo sapiens) (UniProt P16473)
Sequence (P16473 whole entry, looked up): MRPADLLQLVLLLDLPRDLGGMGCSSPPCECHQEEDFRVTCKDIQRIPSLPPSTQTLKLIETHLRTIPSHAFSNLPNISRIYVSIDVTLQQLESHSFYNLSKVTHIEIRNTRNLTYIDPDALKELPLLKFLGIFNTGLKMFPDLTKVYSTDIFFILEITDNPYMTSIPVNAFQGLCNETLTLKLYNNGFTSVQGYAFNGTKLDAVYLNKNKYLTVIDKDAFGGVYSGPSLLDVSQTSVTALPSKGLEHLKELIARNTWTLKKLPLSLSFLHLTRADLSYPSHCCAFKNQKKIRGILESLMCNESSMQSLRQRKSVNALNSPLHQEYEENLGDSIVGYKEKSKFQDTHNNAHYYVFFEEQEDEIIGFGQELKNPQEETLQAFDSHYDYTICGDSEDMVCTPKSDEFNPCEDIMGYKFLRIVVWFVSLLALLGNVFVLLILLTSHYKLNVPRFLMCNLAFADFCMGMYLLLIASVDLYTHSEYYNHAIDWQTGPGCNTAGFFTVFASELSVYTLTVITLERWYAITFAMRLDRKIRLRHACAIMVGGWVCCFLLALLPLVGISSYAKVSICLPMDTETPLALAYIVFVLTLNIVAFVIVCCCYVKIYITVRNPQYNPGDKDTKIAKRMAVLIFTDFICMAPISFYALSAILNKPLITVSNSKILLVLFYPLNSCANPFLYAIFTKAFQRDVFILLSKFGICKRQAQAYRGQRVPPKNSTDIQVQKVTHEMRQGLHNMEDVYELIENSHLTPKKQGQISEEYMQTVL
Experiment: qHTS assay to identify small molecule antagonists of the thyroid stimulating hormone receptor (TSHR) signaling pathway (AID 1259385); note: nearly all actives have a fitted effect of over 20% in size
Details: TSHR-HEK293 cAMP HTRF, TSH-stimulated antagonist mode; series mostly up to 92.4 µM
Inconclusive results are not listed. Activity calls are given as the source filed them. Calls come from the whole dose curve.
QUANTITY: activity change, negative = inhibition

> print(dat)
                                    compound                                quantity  experimental.result
 1              CCC(C)Cl (centres undefined)  activity change, negative = inhibition             inactive
 2            CCOP(=S)(OCC)SCSc1cc(Cl)ccc1Cl  activity change, negative = inhibition             inactive
 3  CC(C)c1ccc(OP(=O)(Oc2ccc(C(C)C)cc2)Oc2ccc(C(C)C)cc2)cc1  activity change, negative = inhibition             inactive
 4                         O=C(O)C(Cl)(Cl)Br  activity change, negative = inhibition             inactive
 5                 O=S(=O)(c1ccccc1)c1ccccc1  activity change, negative = inhibition             inactive
 6  CN1C(=O)CN=C(c2ccccc2)c2cc([N+](=O)[O-])ccc21  activity change, negative = inhibition             inactive
 7             N#CC1(N=NC2(C#N)CCCCC2)CCCCC1  activity change, negative = inhibition             inactive
 8                         CCCCCCCCCCCCN(C)C  activity change, negative = inhibition             inactive
 9                               CCc1ccccc1N  activity change, negative = inhibition             inactive
10                        Cc1ccc2c(C)cccc2c1  activity change, negative = inhibition             inactive
11                      NC(=S)c1c(Cl)cccc1Cl  activity change, negative = inhibition             inactive
12  CCOC(=O)C1OC1(C)c1ccccc1 (centres undefined)  activity change, negative = inhibition             inactive
13                          Clc1ccc2ccccc2c1  activity change, negative = inhibition             inactive
14   C[Si](Cn1cncn1)(c1ccc(F)cc1)c1ccc(F)cc1  activity change, negative = inhibition             inactive
